Here the recorded one-hybrid fitness for binding NBS DNA is given for each entry.
B1: Caulobacter ParB omega fusion; a variant is named by its letters at X, in order, B8GW30 (parent)
chain: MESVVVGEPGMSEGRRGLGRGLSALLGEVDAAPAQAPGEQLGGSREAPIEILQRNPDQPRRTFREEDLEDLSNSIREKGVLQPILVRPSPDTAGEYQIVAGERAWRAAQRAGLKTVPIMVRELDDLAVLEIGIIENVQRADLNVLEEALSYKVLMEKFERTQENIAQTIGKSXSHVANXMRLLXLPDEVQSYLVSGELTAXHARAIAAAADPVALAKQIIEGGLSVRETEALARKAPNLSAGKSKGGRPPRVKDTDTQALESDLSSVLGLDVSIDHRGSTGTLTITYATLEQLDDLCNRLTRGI

Variants of: B1
Test: one-hybrid fitness for binding NBS DNA (the Noc-binding site; scaled: cognate 1, non-cognate 0); higher = stronger binding
Conditions: with NBS DNA site
In all, about 81,000 sequences were measured (“one-hybrid fitness for binding NBS DNA”: median about -0.1, highest 2% from about 0.36 on). Shown is part of a subset that was picked to be rich in the highest values.

mutantCode: QHKM
one-hybrid fitness for binding NBS DNA: 0.379
--
mutantCode: PCMM
one-hybrid fitness for binding NBS DNA: ≤ 0.2
--
mutantCode: TPFT
one-hybrid fitness for binding NBS DNA: ≤ 0.2
--
mutantCode: QMKM
one-hybrid fitness for binding NBS DNA: 0.416
--
mutantCode: QRCS
one-hybrid fitness for binding NBS DNA: 0.693
--
mutantCode: DHNC
one-hybrid fitness for binding NBS DNA: ≤ 0.2
--
mutantCode: FGDR
one-hybrid fitness for binding NBS DNA: ≤ 0.2
--
mutantCode: HNDV
one-hybrid fitness for binding NBS DNA: ≤ 0.2
--
mutantCode: HVLC
one-hybrid fitness for binding NBS DNA: ≤ 0.2
--
mutantCode: RKML
one-hybrid fitness for binding NBS DNA: ≤ 0.2
--
mutantCode: YGQC
one-hybrid fitness for binding NBS DNA: ≤ 0.2
--
mutantCode: QTPA
one-hybrid fitness for binding NBS DNA: ≤ 0.2
--
mutantCode: RQKP
one-hybrid fitness for binding NBS DNA: ≤ 0.2
--
mutantCode: RCHS
one-hybrid fitness for binding NBS DNA: 0.577
--
mutantCode: QHVM
one-hybrid fitness for binding NBS DNA: ≤ 0.2
--
mutantCode: QMQM
one-hybrid fitness for binding NBS DNA: ≤ 0.2
--
mutantCode: TVTR
one-hybrid fitness for binding NBS DNA: ≤ 0.2
--
mutantCode: HVSG
one-hybrid fitness for binding NBS DNA: ≤ 0.2
--
mutantCode: ATVV
one-hybrid fitness for binding NBS DNA: ≤ 0.2
--
mutantCode: QPVS
one-hybrid fitness for binding NBS DNA: 0.202
--
mutantCode: YNKI
one-hybrid fitness for binding NBS DNA: ≤ 0.2
--
mutantCode: KHMG
one-hybrid fitness for binding NBS DNA: ≤ 0.2
--
mutantCode: QEEP
one-hybrid fitness for binding NBS DNA: ≤ 0.2
--
mutantCode: ISNA
one-hybrid fitness for binding NBS DNA: ≤ 0.2
--
mutantCode: SRQM
one-hybrid fitness for binding NBS DNA: ≤ 0.2
--
mutantCode: QICI
one-hybrid fitness for binding NBS DNA: ≤ 0.2
--
mutantCode: WDPR
one-hybrid fitness for binding NBS DNA: ≤ 0.2
--
mutantCode: RQLA
one-hybrid fitness for binding NBS DNA: ≤ 0.2
--
mutantCode: RNVL
one-hybrid fitness for binding NBS DNA: ≤ 0.2
--
mutantCode: QMGA
one-hybrid fitness for binding NBS DNA: 0.253
--
mutantCode: STKR
one-hybrid fitness for binding NBS DNA: 0.254
--
mutantCode: ALND
one-hybrid fitness for binding NBS DNA: ≤ 0.2
--
mutantCode: WKER
one-hybrid fitness for binding NBS DNA: ≤ 0.2
--
mutantCode: QTYA
one-hybrid fitness for binding NBS DNA: 0.427
--
mutantCode: RMHS
one-hybrid fitness for binding NBS DNA: 0.486
--
mutantCode: QTGA
one-hybrid fitness for binding NBS DNA: 0.466
--
mutantCode: PAFV
one-hybrid fitness for binding NBS DNA: ≤ 0.2
--
mutantCode: VCPS
one-hybrid fitness for binding NBS DNA: ≤ 0.2
--
mutantCode: DQKV
one-hybrid fitness for binding NBS DNA: ≤ 0.2
--
mutantCode: TAPS
one-hybrid fitness for binding NBS DNA: ≤ 0.2
--
mutantCode: PPDN
one-hybrid fitness for binding NBS DNA: ≤ 0.2
--
mutantCode: QTLA
one-hybrid fitness for binding NBS DNA: 0.329
--
mutantCode: SDSA
one-hybrid fitness for binding NBS DNA: ≤ 0.2
--
mutantCode: SSRV
one-hybrid fitness for binding NBS DNA: ≤ 0.2
--
mutantCode: VQSE
one-hybrid fitness for binding NBS DNA: ≤ 0.2
--
mutantCode: PNYD
one-hybrid fitness for binding NBS DNA: ≤ 0.2
--
mutantCode: QRHR
one-hybrid fitness for binding NBS DNA: 1.06
--
mutantCode: MVPR
one-hybrid fitness for binding NBS DNA: ≤ 0.2
--
mutantCode: SYLM
one-hybrid fitness for binding NBS DNA: ≤ 0.2
--
mutantCode: RLHH
one-hybrid fitness for binding NBS DNA: ≤ 0.2
--
mutantCode: SFKS
one-hybrid fitness for binding NBS DNA: ≤ 0.2
--
mutantCode: IRKG
one-hybrid fitness for binding NBS DNA: ≤ 0.2
--
mutantCode: PLWH
one-hybrid fitness for binding NBS DNA: ≤ 0.2
--
mutantCode: SVYC
one-hybrid fitness for binding NBS DNA: ≤ 0.2
--
mutantCode: NRHR
one-hybrid fitness for binding NBS DNA: ≤ 0.2
--
mutantCode: PGYI
one-hybrid fitness for binding NBS DNA: ≤ 0.2
--
mutantCode: IGSF
one-hybrid fitness for binding NBS DNA: ≤ 0.2
--
mutantCode: GTQF
one-hybrid fitness for binding NBS DNA: ≤ 0.2
--
mutantCode: QRVS
one-hybrid fitness for binding NBS DNA: 0.561
--
mutantCode: CSPY
one-hybrid fitness for binding NBS DNA: ≤ 0.2
--
mutantCode: LRYR
one-hybrid fitness for binding NBS DNA: ≤ 0.2
--
mutantCode: DRNR
one-hybrid fitness for binding NBS DNA: ≤ 0.2
--
mutantCode: AREP
one-hybrid fitness for binding NBS DNA: ≤ 0.2
--
mutantCode: DHLS
one-hybrid fitness for binding NBS DNA: ≤ 0.2
--
mutantCode: KKDV
one-hybrid fitness for binding NBS DNA: ≤ 0.2
--
mutantCode: KLFS
one-hybrid fitness for binding NBS DNA: ≤ 0.2
--
mutantCode: QKPM
one-hybrid fitness for binding NBS DNA: ≤ 0.2
--
mutantCode: GQLV
one-hybrid fitness for binding NBS DNA: ≤ 0.2
--
mutantCode: EDAY
one-hybrid fitness for binding NBS DNA: ≤ 0.2
--
mutantCode: LPTN
one-hybrid fitness for binding NBS DNA: ≤ 0.2
--
mutantCode: RFHS
one-hybrid fitness for binding NBS DNA: 0.275
--
mutantCode: QRCP
one-hybrid fitness for binding NBS DNA: 0.249
--
mutantCode: VHVQ
one-hybrid fitness for binding NBS DNA: ≤ 0.2
--
mutantCode: GATS
one-hybrid fitness for binding NBS DNA: ≤ 0.2
--
mutantCode: TKHA
one-hybrid fitness for binding NBS DNA: ≤ 0.2
--
mutantCode: DFDS
one-hybrid fitness for binding NBS DNA: ≤ 0.2
--
mutantCode: QSNA
one-hybrid fitness for binding NBS DNA: 0.308
--
mutantCode: RMHD
one-hybrid fitness for binding NBS DNA: ≤ 0.2
--
mutantCode: QHHA
one-hybrid fitness for binding NBS DNA: 0.238
--
mutantCode: KQKS
one-hybrid fitness for binding NBS DNA: ≤ 0.2
--
mutantCode: RLHP
one-hybrid fitness for binding NBS DNA: ≤ 0.2
--
mutantCode: QPNA
one-hybrid fitness for binding NBS DNA: ≤ 0.2
--
mutantCode: RPHS
one-hybrid fitness for binding NBS DNA: ≤ 0.2
--
mutantCode: VMSA
one-hybrid fitness for binding NBS DNA: ≤ 0.2
--
mutantCode: ISMT
one-hybrid fitness for binding NBS DNA: ≤ 0.2
--
mutantCode: TFHR
one-hybrid fitness for binding NBS DNA: ≤ 0.2
--
mutantCode: GASG
one-hybrid fitness for binding NBS DNA: ≤ 0.2
--
mutantCode: VVRC
one-hybrid fitness for binding NBS DNA: ≤ 0.2
--
mutantCode: PFKH
one-hybrid fitness for binding NBS DNA: ≤ 0.2
--
mutantCode: CKWS
one-hybrid fitness for binding NBS DNA: ≤ 0.2
--
mutantCode: DRKS
one-hybrid fitness for binding NBS DNA: ≤ 0.2
